# Tested on: MDA-MB-231
# protocol: Antiproliferative activity against human MDA-MB-231 cells assessed as reduction in cell growth after 72 hrs by MTT assay
# Type: functional, cell-based
# conditionsUsed: MDA-MB-231, 72 h
Reported pIC50 values for the following compounds.
Just the number, please; pIC50 means minus log10 of the concentration in mol/L.

>>> print(df.to_string())
                      structuresmilesstring  valueobserved
0  C=C1C(=O)[C@@]23C(=O)OC[C@]4(C=CCC(C)(C)[C@H]4C=O)[C@@H]2CC[C@@H]1[C@H]3OC(=O)/C=C/c1ccncc1F           6.08
1  C=C1C(=O)[C@@]23C(=O)O[C@H]4CCC(C)(C)[C@H]5C(=O)OC[C@]45[C@H]2CC[C@@H]1[C@H]3OC(=O)/C=C/c1cncnc1           5.66
2  C=C1C(=O)[C@@]23C(=O)OC[C@]4(C=CCC(C)(C)[C@H]4C=O)[C@@H]2CC[C@@H]1[C@H]3OC(=O)/C=C/c1ccncc1           6.12
3  C=C1C(=O)[C@@]23C(=O)O[C@H]4CCC(C)(C)[C@H]5C(=O)OC[C@]45[C@H]2CC[C@@H]1[C@H]3OC(=O)/C=C/c1ccncc1           6.09

Proceed to the following item.
Q: Quick one: pIC50 for C=C1C(=O)[C@@]23C(=O)OC[C@]4(C=CCC(C)(C)[C@H]4C=O)[C@@H]2CC[C@@H]1[C@H]3OC(=O)/C=C/c1cccnc1 ?
A: 6.01
